Target sequence: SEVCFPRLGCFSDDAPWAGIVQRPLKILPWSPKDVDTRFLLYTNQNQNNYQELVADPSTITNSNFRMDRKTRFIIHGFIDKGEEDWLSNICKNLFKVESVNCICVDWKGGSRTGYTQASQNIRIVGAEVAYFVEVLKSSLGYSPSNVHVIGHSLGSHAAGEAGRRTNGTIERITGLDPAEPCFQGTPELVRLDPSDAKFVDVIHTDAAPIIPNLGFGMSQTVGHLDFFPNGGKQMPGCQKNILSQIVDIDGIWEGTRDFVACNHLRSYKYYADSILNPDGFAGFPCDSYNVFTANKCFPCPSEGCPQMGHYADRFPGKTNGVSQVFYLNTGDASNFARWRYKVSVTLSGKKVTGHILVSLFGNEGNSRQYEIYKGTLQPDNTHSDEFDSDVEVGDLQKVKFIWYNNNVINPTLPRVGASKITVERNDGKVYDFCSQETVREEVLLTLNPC
attribute-measured: IC50 (µM)
Numbers only, in µM.

Incoming: For the compound CCCCCCCCCCCCCCCCOc1nc2ccc(C)cc2c(=O)o1 [Cetilistat] , what IC50 is on record?
Outgoing: 18.6
